RUN DESCRIPTION: Inhibition of recombinant his tagged IMP1 (unknown origin) expressed in Escherichia coli (DE3) cells using FC5 as substrate by microplate reader assay
Categories are assigned from the measured IC50 using these intervals: bin A = under 4 µM, bin B = from 4 µM up to 10 µM, bin C = 10 µM and over

Answered cases to consult:
Qu. Input "CCCCc1cn(-c2cccc(C(=O)O)c2C(=O)O)nn1" ; output its category
Ans. bin B

Qu. Input "O=P(O)(O)Cc1cccc(-n2cc(-c3ccc(Cl)cc3)nn2)c1" ; output its category
Ans. bin B

Qu. Input "Nc1c(C(=O)O)cccc1-n1cc(-c2ccccc2)nn1" ; output its category
Ans. bin C

Okay, next one:
Qu. Input "NCc1cn(-c2cccc(CP(=O)(O)O)c2)nn1" ; output its category
Ans. bin C

----------
System: Escherichia coli
RUN DESCRIPTION: Antibacterial activity against Escherichia coli BAA2452 expressing blaNDM-1 clinical isolates assessed as meropenem MIC incubated for 16 to 18 hrs by broth microdilution method
Format: functional
CONDITION INFO: time 16-18 hrs
MEASURED ENDPOINT: MIC (µg/mL)
Please give a number only; it is taken to be in µg/mL.

// solved cases for MIC follow
Qu. Determine from records and report MIC for CCCc1ccc(C(c2cccc(-n3cc(-c4cccc(N)c4)nn3)c2)P(=O)(O)O)cc1 (configuration not stated)
Ans. 16

Qu. Determine from records and report MIC for COc1ccc(C(c2cccc(-n3cc(-c4cccc(N)c4)nn3)c2)P(=O)(O)O)cc1 (configuration not stated)
Ans. 16

Qu. Determine from records and report MIC for CCCCc1ccc(C(c2cccc(-n3cc(-c4cccc(N)c4)nn3)c2)P(=O)(O)O)cc1 (configuration not stated)
Ans. 8

Qu. Determine from records and report MIC for Nc1cccc(-c2cn(-c3cccc(C(c4ccc(-c5ccccc5)cc4)P(=O)(O)O)c3)nn2)c1 (configuration not stated)
Ans. 16

Qu. Determine from records and report MIC for "O=P(O)(O)Cc1cccc(-n2cc(-c3ccc(Br)cc3)nn2)c1"
Ans. 32

More entries:
Qu. Determine from records and report MIC for "Nc1cccc(-c2cn(-c3cccc(CP(=O)(O)O)c3)nn2)c1"
Ans. 32

Qu. Determine from records and report MIC for Nc1cccc(-c2cn(-c3cccc(C(c4ccc(F)cc4)P(=O)(O)O)c3)nn2)c1 (configuration not stated)
Ans. 16

----------
RUN DESCRIPTION: Inhibition of recombinant VIM-5 (unknown origin) expressed in Escherichia coli (DE3) cells using FC5 as substrate by microplate reader assay
MEASURED ENDPOINT: pIC50
Value format note: pIC50 is -log10 of concentration (mol/L); just state the number.

Qu. Determine from records and report pIC50 for "O=P(O)(O)Cc1cccc(-n2cc(-c3cccc(Cl)c3)nn2)c1"
Ans. 7.51

Qu. Determine from records and report pIC50 for "Nc1ccccc1-c1cn(-c2cccc(CP(=O)(O)O)c2)nn1"
Ans. 6.29

Qu. Determine from records and report pIC50 for Nc1cccc(-c2cn(-c3cccc(C(c4ccc(F)cc4)P(=O)(O)O)c3)nn2)c1 (centres undefined)
Ans. 9.00

Qu. Determine from records and report pIC50 for N#Cc1ccc(C(c2cccc(-n3cc(-c4cccc(N)c4)nn3)c2)P(=O)(O)O)cc1 (centres undefined)
Ans. 8.52

Qu. Determine from records and report pIC50 for CSc1ccc(C(c2cccc(-n3cc(-c4cccc(N)c4)nn3)c2)P(=O)(O)O)cc1 (centres undefined)
Ans. 9.92
